Tested on: TO-N3 (biotin conjugate)
TEST DESCRIPTION: pull-down binding Z-score (relative to library population); higher = stronger binding
CONDITION PARAMETERS: RNA library: Library-2
QUANTITY: pull-down binding Z-score
// return just the number, without any unit appended

# pull-down binding Z-score of UGGACAGAAAUUUCCUUUUGAGGAAAUCUUUCCC [hsa-mir-4308] = -0.671

# pull-down binding Z-score of GUCAUUUCCCAUCACUAAUGGC [hsa-mir-6815] = -0.873

# pull-down binding Z-score of `CUUGGAAAACUUCAAG` = -0.471

# pull-down binding Z-score of GAGACUGCCCAAAGACUCUUCAGUAUC [hsa-mir-2681] = 0.738

# pull-down binding Z-score of GUGGGUUGUGAGGACUGAGGCCAGACCCAC [hsa-mir-181d] = -0.139

# pull-down binding Z-score of AGGACACAGGCUGGCACUGAGGUCCC [hsa-mir-6887] = 0.639

---

Test system: TO-N3 (biotin conjugate)
TEST DESCRIPTION: pull-down binding Z-score (relative to library population); higher = stronger binding
CONDITION PARAMETERS: RNA library: Library-2
QUANTITY: pull-down binding Z-score

# pull-down binding Z-score of CUGGGGACUGUGUGGACUGGUAUCACCCAG [hsa-mir-2278] = 0.225

# pull-down binding Z-score of CUACUAGUUUGUAGUAGUUCGUAGCAG [hsa-mir-3919] = -0.197

# pull-down binding Z-score of CUGGCAGUAACCAG [SHAPE_invivo_SARS-CoV-2_Motif_538] = -0.233

# pull-down binding Z-score of ACGUCCAGUGGUGCAGAGGUAAUGGACGU [hsa-mir-1306] = 0.283

# pull-down binding Z-score of `CCUGACUUAAAUGGUGAUGUGGUGGCUAUUGAUUAUAAACACUACACACCCUCUUUUAAGAAAGG` = -0.206

# pull-down binding Z-score of GCCAUCUGGUUGUGACAUCACUGAUGGC [hsa-mir-7155] = 0.932

---

Test system: G-clamp-N3 (biotin conjugate)
TEST DESCRIPTION: pull-down binding Z-score (relative to library population); higher = stronger binding
CONDITION PARAMETERS: RNA library: Library-1 (pre-miRNA loops + repeats)
Each entry gets false (0) if its pull-down binding Z-score stays under -0.3, and true (1) if its pull-down binding Z-score is -0.3 or above.

Textbook exercise: given the entry CAUUCUUUGCUA [hsa-mir-567] , state whether its pull-down binding Z-score is greater than or equal to -0.3.
false (0)

Textbook exercise: given the entry AGGUUGGCUGGGCCAGGCCUGACCU [hsa-mir-4722] , state whether its pull-down binding Z-score is greater than or equal to -0.3.
true (1)

Textbook exercise: given the entry UGAAAGGUUUUUUCUCUCA [hsa-mir-4797] , state whether its pull-down binding Z-score is greater than or equal to -0.3.
true (1)

Textbook exercise: given the entry CACGGUGUCUGCGGGAGGAGACCAUG [hsa-mir-4757] , state whether its pull-down binding Z-score is greater than or equal to -0.3.
false (0)

Textbook exercise: given the entry AACAGGACCUGUGCUCACUGGGGCCUGCA [hsa-mir-6797] , state whether its pull-down binding Z-score is greater than or equal to -0.3.
false (0)

Textbook exercise: given the entry AUGGGGCAGCUGGGAUGGUCCAAAAGGGUGGCCUCA [hsa-mir-1226] , state whether its pull-down binding Z-score is greater than or equal to -0.3.
true (1)
